system: MV4;11 leukemia cells carrying MLL-AF4 fusion; experiment: cell viability assay (WST-8), MV4;11; type: cell-based; settings: Homo sapiens, MV4-11, 96 h, read-out: Cell Growth Inhibition IC50 (μM) MV-4-11
Starred links: 1 amine or outer side, 2 acyl side, 3 side chain; linkers in the order of their positions; H or OH if unused. Positions of bridges follow the written chain, without caps; N, C: chain ends. Non-standard residues stand in square brackets, D forms with d. Residues, ends and D or L forms follow the SMILES beside them. *: point of attachment. dαMeLys(Me) = CN(CCCC[C@@](C)(N[*:1])C(=O)[*:2])[*:3]; Arg(Me2s) = CN=C(NC)NCCC[C@H](N)C(=O)O; dPhg(4-F) = N[C@@H](C(=O)O)c1ccc(F)cc1; Arg(Me) = CNC(=N)NCCC[C@H](N)C(=O)O; d(αMeK) = C[C@@](N)(CCCCN)C(=O)O; dPhg = N[C@@H](C(=O)O)c1ccccc1; Phg = N[C@H](C(=O)O)c1ccccc1; αMeK = C[C@](N)(CCCCN)C(=O)O; Isobutyryl = CC(C)C(=O)*; dAbu = CC[C@@H](N)C(=O)O; Abu = CC[C@H](N)C(=O)O
# fulfilled = IC50 below 8 µM (exclusive); not fulfilled = IC50 at/above 8 µM

molecule | label_class
CC[C@@H]1NC(=O)[C@H](CCCNC(=N)N)NC(=O)[C@](C)(NC(=O)C(C)C)CCCCN(C)C(=O)[C@@H](c2ccc(F)cc2)NC1=O [Cpd. No. 66] (Isobutyryl-[dαMeLys(Me)]R[Abu][dPhg(4-F)]; lactam 1-C) | fulfilled
CC[C@@H]1NC(=O)[C@H](CCCNC(=N)NC)NC(=O)[C@](C)(NC(=O)C(C)C)CCCCNC(=O)[C@@H](c2ccccc2)NC1=O [Cpd. No. 68] (Isobutyryl-[d(αMeK)][Arg(Me)][Abu][dPhg]; lactam 1-C) | fulfilled
CC[C@H]1NC(=O)[C@@H](CCCNC(=N)N)NC(=O)[C@@](C)(NC(=O)C(C)C)CCCCNC(=O)[C@H](c2ccccc2)NC1=O [Cpd. No. 70] (Isobutyryl-[αMeK][dR][dAbu][Phg]; lactam 1-C) | not fulfilled
CC[C@@H]1NC(=O)[C@H](CCCNC(=N)N)NC(=O)[C@](C)(NC(=O)C(C)C)CCCCCCCCNC(=O)[C@@H](c2ccccc2)NC1=O | fulfilled
CC[C@@H]1NC(=O)[C@H](CCCN/C(=N/C)NC)NC(=O)[C@](C)(NC(=O)C(C)C)CCCCNC(=O)[C@@H](c2ccccc2)NC1=O [Cpd. No. 69] (Isobutyryl-[d(αMeK)][Arg(Me2s)][Abu][dPhg]; lactam 1-C) | not fulfilled
CC[C@@H]1NC(=O)[C@H](CCCNC(=N)N)NC(=O)[C@](C)(NC(=O)C(C)C)CCCCCCNC(=O)[C@@H](c2ccccc2)NC1=O | fulfilled

* * *

target: WDR5 (Homo sapiens, UniProt P61964); construct: N-terminal His-tagged WDR5 protein (residues 24-334), named WDR5Δ23; made in house; host or cells: E. coli Rosetta 2 (DE3); experiment: fluorescence polarization (FP) based competitive binding assay to WDR5 protein
pKi: −log10 of the molar value. Starred links: 1 amine or outer side, 2 acyl side, 3 side chain; linkers in the order of their positions; H or OH if unused. Positions of bridges follow the written chain, without caps; N, C: chain ends. Non-standard residues stand in square brackets, D forms with d. Residues, ends and D or L forms follow the SMILES beside them. *: point of attachment. dαMeDab = C[C@](CCN[*:3])(N[*:1])C(=O)[*:2]; dPhg = N[C@@H](C(=O)O)c1ccccc1; Pyridin(2-yl) = c1ccc(*)nc1; Isobutyryl = CC(C)C(=O)*; Orn = NCCC[C@H](N)C(=O)O; Abu = CC[C@H](N)C(=O)O
Listing of entries alongside the reported pKi.
property_name: pKi

molecule | property_name | test_value
CC[C@@H]1NC(=O)[C@H](CCCNC2=NCCCN2)NC(=O)[C@](C)(NC(=O)C(C)C)CCNC(=O)[C@@H](c2ccc3ccccc3c2)NC1=O | pKi | > 9.00
CC[C@@H]1NC(=O)[C@H](CCCNc2ccccn2)NC(=O)[C@](C)(NC(=O)C(C)C)CCNC(=O)[C@@H](c2ccccc2)NC1=O [Cpd. No. 12] (Isobutyryl-[dαMeDab][Orn](Pyridin(2-yl))[Abu][dPhg]; lactam 1-C) | pKi | > 9.00
CC[C@@H]1NC(=O)[C@H](CCCNC(=N)N)NC(=O)[C@](C)(NC(=O)C(C)C)CCCCCCNC(=O)[C@@H](c2ccccc2)NC1=O | pKi | > 9.00

Just for reference, patent US20210130401A1 is where these values come from.
